- Tested on: NCI/ADR-RES ovarian
- EXPERIMENT NOTES: NCI-60 one-dose screen, 48 h
- TEST CONDITIONS: 10 µM
The panel holds about 83,000 compounds, 20% with a hit somewhere; the sample as a whole holds those more often. The source made the active and inactive calls. The calls were made as follows: active = growth percent below 10; inactive = the rest.
Could you please pick one outcome from this set? label 1 for active, label 0 for inactive

| COMPOUND | ASSIGNED CATEGORY |
| --- | --- |
| CCN(CC)CCCC(C)N=C(C1=C(C(=NC(C)CCCN(CC)CC)c2cccc(OC)c2)C(=O)NC1=O)c1cccc(OC)c1 (stereo not drawn) | label 1 |

INPUT: Any idea what this test logged for CC1CCCC(C(=O)O)C1C(=O)O (stereo not drawn) ?
OUTPUT: label 0

INPUT: Dear colleague, could you share the recorded outcome for OC[C@H]1OC([S-])[C@H](O)[C@@H](O)[C@@H]1O.[Au+] (stereo partly drawn) when you have a moment?
OUTPUT: label 0

INPUT: How was CCCCC(CC)CN=C(N)NC(N)=NCCCCCCN=C(N)NC(N)=NCC(CC)CCCC (stereo not drawn) classified in this test?
OUTPUT: label 0

INPUT: # outcome recorded in this test, key = `O=C(CN(C1CCCCC1)C1CCCCC1)Nc1ccc(S(=O)(=O)c2ccc(NC(=O)CN(C3CCCCC3)C3CCCCC3)cc2)cc1`
OUTPUT: label 1

INPUT: Kindly provide the recorded test outcome for the following compound: `COc1cc(N)c2ncccc2c1SC`
OUTPUT: label 0

INPUT: Would you mind telling me which call this test gave `O=C1C=C(Nc2cccc(Br)c2)c2ccccc2C1=O` ?
OUTPUT: label 0

INPUT: // return assay outcome for `CCc1ccc(C2=NN(c3ccc(S(C)(=O)=O)cc3)C(=O)CC2)cc1`
OUTPUT: label 1

INPUT: Please share the test call associated with `Cc1ccc(S(=O)(=O)N(C)CCCCCC(=O)O)cc1` .
OUTPUT: label 0

INPUT: Could you check what this test reported for CCOC(=O)C1=CSC2=NC3=C(CCC/C3=C\c3ccc(Cl)cc3)C(c3ccc(Cl)cc3)N12 (stereo not drawn) ?
OUTPUT: label 0

INPUT: Given COC1OC(COS(=O)OC)C(O)C(O)C1OS(=O)OC (stereo not drawn) , state the outcome it received in this test.
OUTPUT: label 0

INPUT: Outcome? `COc1cc(C)ccc1Oc1nc(Nc2ccc(N3CCOCC3)cc2)ncc1NC(=O)Nc1cc(C(F)(F)F)cc(C(F)(F)F)c1`
OUTPUT: label 0

INPUT: So what was the verdict on `Cc1ccc(-c2c3c(N)nc(-c4cccnc4)nc3nc3c2c(C)nn3-c2ccccc2)cc1` in this test?
OUTPUT: label 0

INPUT: Outcome? `Fc1ccc2[nH]cc(-c3nc(-c4ccsc4)cs3)c2c1`
OUTPUT: label 0

INPUT: Dear colleague, could you share the recorded outcome for `COc1ccc2nc3cc(Cl)ccc3c(NCCCNCCO)c2c1` when you have a moment?
OUTPUT: label 0

INPUT: Just curious, what result did `CN(C)CCCOc1ccc(OCCCN(C)C)c2c1C(=O)c1ccccc1C2=O` get here?
OUTPUT: label 0

INPUT: What was the test verdict on `CN1CCc2c(sc3nc4n(-c5ccc(Cl)cc5)cnn4c(=O)c23)C1` ?
OUTPUT: label 0

INPUT: Dear all, I need the recorded test outcome for `CN1CCN(C2=Nc3ccccc3Oc3ccc(Cl)cc32)CC1` , thank you.
OUTPUT: label 0

INPUT: So what was the verdict on `Brc1ccc2c(c1)-c1ccccc1C1=NCCN12` in this test?
OUTPUT: label 1

INPUT: Check the results log: what was the call for `Nc1ccc(/C=N/Nc2ccnc3c(O)cccc23)c2cccnc12` ?
OUTPUT: label 0

INPUT: How was CCN(CC)c1ccc(/C=C2\SC(=O)C(Nc3nnc(-c4cccnc4SCc4ccccc4)o3)C2=O)cc1 (stereo not drawn) classified in this test?
OUTPUT: label 1
